System: EKVX NSCLC
METHOD DESCRIPTION: NCI tumour cell line growth inhibition, 48 h
Entries and their measured GI50 follow.
READOUT: GI50

compound=CCCCCc1cc[n+](CC(=O)c2ccc([N+](=O)[O-])cc2)cc1 result="3.5 µM"
compound=CCCCCCCCCCC/C=C\C[C@H](O)C/C=C1/C(=O)C=C[C@@H]1C/C=C\CCCC(=O)OC result="0.766 µM"
compound="CC[C@@H](C(=O)[C@H](C)[C@H](O)[C@@H](C)[C@H]1O[C@H]([C@@H](CC)C(=O)O)CC[C@H]1C)C1O[C@]2(C=C[C@@H](O)[C@]3(CC[C@@](C)([C@H]4CC[C@](O)(CC)[C@H](C)O4)O3)O2)[C@H](C)C[C@@H]1C (stereo partly drawn)" result="0.362 µM"
compound=C1COCCOCCOCCOCCOCCO1.[Cl][Sn]([Cl])([c]1ccccc1)[c]1ccccc1 result="6.77 µM"
compound=CN(C)CCC=C1c2ccccc2C(C)(C)c2ccccc21 result="14.4 µM"
compound=N#Cc1ccsc1NC(=O)COC(=O)c1cccc(S(=O)(=O)N2CCc3ccccc32)c1 result="68.3 µM"
compound="C=C1CCC2C3(C)COC(c4c(OC)cccc4OC)OC3CCC2(C)C1C/C=C1/C(=O)OCC1O (stereo not drawn)" result="8.47 µM"
compound=O=C(N=Nc1c(O)[nH]c2ccccc12)c1oc2ccccc2c1CN1CCN(c2ccccc2)CC1 result="1.91 µM"

---

Attribute: TGI
Test system: MOLT-4 leukemia
METHOD DESCRIPTION: NCI tumour cell line growth inhibition, 48 h
READOUT: TGI

compound="CC1=C(C(=O)Nc2ccc3[nH]ncc3c2)C(c2ccc(Cl)c(Cl)c2)CC(=O)N1 (centres undefined)" study_target="MOLT-4 leukemia" readout=TGI result="> 25 µM"
compound=CCC(=O)NC(Nc1cccc(F)c1)(C(F)(F)F)C(F)(F)F study_target="MOLT-4 leukemia" readout=TGI result="> 100 µM"
compound="COC(=O)C1=CC2CC1C(S(=O)(=O)c1ccccc1)C2S(=O)(=O)c1ccccc1 (centres undefined)" study_target="MOLT-4 leukemia" readout=TGI result="19.6 µM"
compound=O=[N+]([O-])c1ccc(Sc2nc(Cl)nc(NC3CCCC3)n2)cc1 study_target="MOLT-4 leukemia" readout=TGI result="> 10 µM"

---

Tested on: TK-10 renal
METHOD DESCRIPTION: NCI tumour cell line growth inhibition, 48 h
READOUT: TGI

molecule=COC(=O)/C=C(/C(=O)OC)c1cc2ccc3c([nH]c4ccccc43)c(C)c-2c1 readout=TGI result="> 100 µM"
molecule=CCOP(=O)(Nc1ccccc1P(=O)(OCC)OCC)OCC readout=TGI result="> 100 µM"
molecule="COc1cccc(C2ON=C(c3ccccc3)N2C23CC4CC(CC(C4)C2)C3)c1 (stereo not given)" readout=TGI result="> 10 µM"
molecule="COC1=CC(=O)c2c(cc(COP(=O)(OCC3OC(n4cc(F)c(=O)[nH]c4=O)CC3O)N(C)CCCCCl)n2C)C1=O (stereo not given)" readout=TGI result="> 100 µM"
molecule=COC(=O)C[CH2][Ge]([CH3])([CH3])[S]c1ccccc1 readout=TGI result="> 100 µM"
